Hello, the source for this data is the RNAGym collection of RNA variant scans (doi:10.1093/nar/gkz1192), in case you need it.

B1: CPEB3 Ribozyme (parent)
chain: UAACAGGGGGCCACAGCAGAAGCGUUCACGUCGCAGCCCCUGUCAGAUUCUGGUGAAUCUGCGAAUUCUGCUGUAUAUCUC

- Variants of: B1
- test-description: self-cleavage, relative activity (ratio to wild type); higher = more cleavage; in vitro, sequencing
Rule: yes for self-cleavage not less than 0.4, no for anything less.

variant_name="A47G G73U" assigned_category=yes
variant_name="U31C U76G" assigned_category=yes
variant_name="A3U U54A" assigned_category=yes
variant_name="A20U C27U" assigned_category=no
variant_name="U25G U67A" assigned_category=no
variant_name="A21U A75U" assigned_category=no
variant_name="A15G G19C" assigned_category=yes
variant_name="C23U A65G" assigned_category=yes
variant_name="A2U A5U" assigned_category=yes
